Parameter Ht: see the listing below.
Organism: Rattus norvegicus
test.details: Open TG-GATES - Regimen: Single
Type: toxicity, organism-based, Sprague-Dawley
Parameters: regimen Single, gender Male, age 6 weeks
conditions.used: in vivo, po, 0 mg/kg, 3 h, tissue Blood, route gavage, dose level Control
Return type: number; implicit unit %.

Recorded results for 5 compounds are shown here.
Input line: Output measured Ht for this item: COc1ccc(Cl)cc1C(=O)NCCc1ccc(S(=O)(=O)NC(=O)NC2CCCCC2)cc1 [GLYBURIDE]
Output line: 40.6

Input line: Report Ht, nothing else, for this compound: C=CCO
Output line: 39.2

Input line: Give Ht for CNCCC(Oc1ccc(C(F)(F)F)cc1)c1ccccc1.Cl (centres undefined) [FLUOXETINE HYDROCHLORIDE]
Output line: 41.2

Input line: For the compound S=C=Nc1cccc2ccccc12 [1-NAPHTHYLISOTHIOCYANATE] , give its measured Ht value.
Output line: 37.8

Input line: Give the reported value of Ht for this record: CS(=O)(=O)Nc1ccc([N+](=O)[O-])cc1Oc1ccccc1 [NIMESULIDE]
Output line: 41.1

New cases:
Input line: Find the measured Ht of O=C1NC(=O)C(c2ccccc2)(c2ccccc2)N1 and report it.
Output line: 40.2

Input line: Using the record for COc1ccc(O)c(C(C)(C)C)c1.COc1ccc(O)cc1C(C)(C)C [BUTYLATED HYDROXYANISOLE] , state its measured Ht.
Output line: 38.4

Input line: Note down Ht recorded for Cc1cccc(Nc2cc(Cl)nc(SCC(=O)O)n2)c1C
Output line: 40.2

Input line: Give the reported Ht for this compound. Cn1cnc([N+](=O)[O-])c1Sc1ncnc2nc[nH]c12
Output line: 39.3

Cited source for all entries: ChEMBL document CHEMBL3885861
